Source: ChEMBL document CHEMBL5120927

assay_method_text: Hemolytic activity in human RBC assessed as haemoglobin release measured after 3 hr
Type: toxicity, cell-based, Erythrocyte
setup_conditions: red blood cells (erythrocytes)
value_kind: HC50 at 3 h

Answered cases to consult:
CCC/C=C\CCOP(=O)(CCN(CCCN)CCCN)OCCCCCOP(=O)(CCN(CCCN)CCCN)OCC/C=C\CCC.Cl.Cl.Cl.Cl.Cl.Cl (stereo not drawn) = > 250 µg/mL
CCCCOP(=O)(CCN(CCCN)CCCN)OCCCCCCCCOP(=O)(CCN(CCCN)CCCN)OCCCC.Cl.Cl.Cl.Cl.Cl.Cl (stereo not drawn) = > 100 µg/mL
Cl.Cl.Cl.Cl.Cl.Cl.NCCCN(CCCN)CCP(=O)(OCCCCCCOP(=O)(CCN(CCCN)CCCN)OCCc1ccccc1)OCCc1ccccc1 (stereo not drawn) = > 200 µg/mL
CCC/C=C\CCOP(=O)(CCN(CCCN)CCCN)OCCCCCCOP(=O)(CCN(CCCN)CCCN)OCC/C=C\CCC.Cl.Cl.Cl.Cl.Cl.Cl (stereo not drawn) = > 200 µg/mL

The following molecules each have a reported value; give each one's HC50 at 3 h.
1. Cl.Cl.Cl.Cl.Cl.Cl.NCCCN(CCCN)CCP(=O)(OCCCCCCCOP(=O)(CCN(CCCN)CCCN)OCCCC(F)(F)F)OCCCC(F)(F)F (stereo not drawn)
2. CCCCCCCCOP(=O)(CCN(CCCN)CCCN)OCCOCc1ccccc1.Cl.Cl.Cl (stereo not drawn)
3. Cl.Cl.Cl.Cl.Cl.Cl.N=C(N)NCCCN(CCCNC(=N)N)CCP(=O)(OCCCCCCCOP(=O)(CCN(CCCNC(=N)N)CCCNC(=N)N)OCCCC(F)(F)F)OCCCC(F)(F)F (stereo not drawn)
4. CCCCC/C=C\CCOP(=O)(CCN(CCCN)CCCN)OCCCOP(=O)(CCN(CCCN)CCCN)OCC/C=C\CCCCC.Cl.Cl.Cl.Cl.Cl.Cl (stereo not drawn)
5. Cl.Cl.Cl.Cl.Cl.Cl.NCCCN(CCCN)CCP(=O)(OCCCCCCOP(=O)(CCN(CCCN)CCCN)OCC1CCCC1)OCC1CCCC1 (stereo not drawn)

1: > 200 µg/mL; 2: > 100 µg/mL; 3: > 200 µg/mL; 4: > 500 µg/mL; 5: > 1000 µg/mL

The following molecules each have a reported value; give each one's HC50 at 3 h.
1. CCCCCOP(=O)(CCN(CCCN)CCCN)OCCCCCCCCOP(=O)(CCN(CCCN)CCCN)OCCCCC.Cl.Cl.Cl.Cl.Cl.Cl (stereo not drawn)
2. CCC/C=C\CCOP(=O)(CCN(CCN)CCN)OCCCCCCCOP(=O)(CCN(CCN)CCN)OCC/C=C\CCC.Cl.Cl.Cl.Cl.Cl.Cl (stereo not drawn)
3. CCC/C=C\CCOP(=O)(CCN(CCCN)CCCN)OCCCOP(=O)(CCN(CCCN)CCCN)OCC/C=C\CCC.Cl.Cl.Cl.Cl.Cl.Cl (stereo not drawn)
4. CC(C)COP(=O)(CCN(CCCN)CCCN)OCCCCCCCCOP(=O)(CCN(CCCN)CCCN)OCC(C)C.Cl.Cl.Cl.Cl.Cl.Cl (stereo not drawn)

1: > 100 µg/mL; 2: > 500 µg/mL; 3: > 200 µg/mL; 4: > 1000 µg/mL

---

Tested on: Staphylococcus epidermidis
assay_method_text: Antibacterial activity against Staphylococcus epidermidis CCM 7221 assessed as inhibition of bacterial growth incubated for 24 hrs by microdilution assay
Assay type: functional
Would you kindly list MIC for each of these molecules?
One number for each entry, in µg/mL.

CCCCCCCCOP(=O)(CCN(CCCN)CCCN)OCCCCCCCCCCOP(=O)(CCN(CCCN)CCCN)OCCCCCCCC.Cl.Cl.Cl.Cl.Cl.Cl (stereo not drawn) = 0.5
CCCCCCCOP(=O)(CCN(CCCN)CCCN)OCCCCCCCOP(=O)(CCN(CCCN)CCCN)OCCCCCCC.Cl.Cl.Cl.Cl.Cl.Cl (stereo not drawn) = 0.5

The following molecules each have a reported value; give each one's MIC.
1. Cl.Cl.Cl.Cl.Cl.Cl.NCCCN(CCCN)CCP(=O)(OCCCOP(=O)(CCN(CCCN)CCCN)OCC12CC3CC(CC(C3)C1)C2)OCC12CC3CC(CC(C3)C1)C2 (stereo not drawn)
2. Cl.Cl.Cl.Cl.Cl.Cl.NCCN(CCN)CCP(=O)(OCCCCCCOP(=O)(CCN(CCN)CCN)OCCc1ccccc1)OCCc1ccccc1 (stereo not drawn)
3. CCCCOP(=O)(CCN(CCCN)CCCN)OCCCCCCCCCCCCCCOP(=O)(CCN(CCCN)CCCN)OCCCC.Cl.Cl.Cl.Cl.Cl.Cl (stereo not drawn)
4. CCCCCCOP(=O)(CCN(CCCN)CCCN)OCCCCCCCCOP(=O)(CCN(CCCN)CCCN)OCCCCCC.Cl.Cl.Cl.Cl.Cl.Cl (stereo not drawn)
5. CCCCCCCCCCOP(=O)(CCN(CCCN)CCCN)OCCCOP(=O)(CCN(CCCN)CCCN)OCCCCCCCCCC.Cl.Cl.Cl.Cl.Cl.Cl (stereo not drawn)

2
16
0.5
0.5
1
